test system: SK-OV-3; test: NCI tumour cell line growth inhibition, 48 h
Activity calls are given as the source filed them. Rule as the data show it: active = GI50 up to about 1.1 µM and inactive = higher.
Reported GI50 by item:

INSERT INTO results (compound, recorded_measurement) VALUES
  ('C=C1C(=O)C23C(O)CC4C(C)(C)CCC(O)C4(C)C2CC(OC(C)=O)C1[C@H]3O (stereo partly specified)', '17.3 µM (inactive)'),
  ('CC1=NN(C(=O)CC(=O)Nc2ccccc2C)C(=O)C1/N=N\c1ccc(S(=O)(=O)c2ccc(/N=N/C3C(=O)N(C(=O)CC(=O)Nc4ccccc4C)N=C3C)cc2)cc1 (stereo unspecified)', '> 100 µM (inactive)'),
  ('CN(C)c1ccc(/C=C2/SC(=S)NC2=O)cc1', '29.1 µM (inactive)'),
  ('O=C(CSc1nc2ccc(I)cc2c(=O)n1Cc1ccccc1)NN1C(=O)CCC1=O', '52 µM (inactive)'),
  ('Nc1ccc(-c2nc3ccc(F)cc3s2)cc1Cl', '> 100 µM (inactive)');

Item COC(=O)c1ccc(CCc2cc(O)ccc2O)cc1 : provide GI50 38 µM (inactive)

====

system: SNB-75; assay: NCI tumour cell line growth inhibition, 48 h
Activity calls are given as the source filed them. Rule as the data show it: active = GI50 up to about 1.1 µM and inactive = higher.
Hi! Could you answer with just one of these? Yes (active), No (inactive)

The examples below pair each entry with its known result.
INSERT INTO measurements (compound, class) VALUES
  ('C=C(C)[C@@]1(O)CCCC[C@@H]1CC(Sc1ccccc1)Sc1ccccc1', 'No'),
  ('COc1ccc(/C=C/C(=O)c2c(-c3ccccc3)nn(C)c(=O)c2N2CC2C)cc1 (centres undefined)', 'No'),
  ('CC1=CC2=C(OCO1)C(=O)c1ccccc1C2=O', 'No'),
  ('c1ccc([P+](CC[P+](c2ccccc2)(c2ccccc2)c2ccccc2)(c2ccccc2)c2ccccc2)cc1', 'No'),
  ('CC(C)(C)c1ccc(OC(=O)Nc2ccc(O)c(C(=O)O)c2)cc1', 'No');

Outcome? CC(=O)[C@H]1CCC2[C@@H]3CC=C4C(O)C(OS(=O)(=O)O)CC[C@]4(C)C3CC[C@@]21C (some centres undefined) No

Outcome? C/C=C(/I)CBr No

Outcome? CCOC(=O)c1cc2cc(Cc3ccc4[nH]c(C(=O)OCC)cc4c3)ccc2[nH]1 No

Outcome? CCc1ccccc1N1CCN(C(=O)c2cc(OC)c(OC)c(OC)c2)CC1 Yes

Outcome? COc1ccc(/C=C(/C)[N+](=O)[O-])cc1 No

Outcome? CCOC(=O)C1=c2[nH]c3cccc4cccc(c43)n2C=C(C(C)=O)C1CC(C)=O (centres undefined) No

Outcome? O=c1[nH]c2cccccc-2c1-c1nc2ccccc2[nH]1 No

Outcome? COc1ccc(C2S/C(=C\c3cc(OC)c(OC)c(OC)c3)C(=O)N2NC(=O)Cc2ccccc2)cc1 (centres undefined) No

Outcome? O=c1ncccn1[C@@H]1O[C@H](CO)[C@H](O)C1O (some centres undefined) No

Outcome? CC(=O)NNc1nc(C)c(C(/C=C/c2ccc(/C=C/C(=N\NC(=O)c3ccncc3)c3sc(NNC(C)=O)nc3C)cc2)=N/NC(=O)c2ccncc2)s1 No

Outcome? Nc1c2c(nc3ccccc13)-c1ccccc1CCC2 No

Outcome? NC(=O)c1csc(C2OC(COP(=O)(O)CP(=O)(O)OCC3OC(n4cnc5c(N)ncnc54)C(O)C3O)C(O)C2O)n1 (centres undefined) No

Outcome? O=CN1CCN(C(=O)c2ccc(Cl)cc2Cl)C1=S No

Outcome? CCOC(=O)C(C)(Cc1ccc(O)cn1)NC(=O)c1ccccc1 (centres undefined) No
